# System: B-cell line
# assay-remarks: Cytotoxicity against Balb/c mouse B cells assessed as decrease cell survival at 100 uM by MTT assay
# Type: cell-based
property: Activity

> print(dat)
                           smiles.structure  experimental.result
1  Cc1cc(OC(=O)CCC(=O)Nc2ccccc2F)c(C)c2c1CC[C@H]1[C@H](C)C(=O)O[C@@H]21            Non-Toxic
2  CCCCCOc1cc(C)c2c(c1C)[C@@H]1OC(=O)[C@@H](C)[C@@H]1CC2                Toxic
3  Cc1cc(O)c(C)c2c1CC[C@H]1[C@H](C)C(=O)O[C@@H]21                Toxic
4  Cc1cc(OCc2ccc(Cl)cc2)c(C)c2c1CC[C@H]1[C@H](C)C(=O)O[C@@H]21                Toxic
5  CCCOc1cc(C)c2c(c1C)[C@@H]1OC(=O)[C@@H](C)[C@@H]1CC2                Toxic
6  Cc1cc(OC(=O)c2ccccc2)c(C)c2c1CC[C@H]1[C@H](C)C(=O)O[C@@H]21            Non-Toxic
7  CCCCC(=O)Oc1cc(C)c2c(c1C)[C@@H]1OC(=O)[C@@H](C)[C@@H]1CC2                Toxic
8  COc1ccc(NC(=O)CCC(=O)Oc2cc(C)c3c(c2C)[C@@H]2OC(=O)[C@@H](C)[C@@H]2CC3)cc1                Toxic

====

# Test system: B-cell line
# assay-remarks: Cytotoxicity against Balb/c mouse B cells assessed as decrease cell survival at 100 uM by MTT assay
# Type: cell-based
property: Activity

> print(dat)
                           smiles.structure  experimental.result
1  CCCC(=O)Oc1cc(C)c2c(c1C)[C@@H]1OC(=O)[C@@H](C)[C@@H]1CC2            Non-Toxic
2  Cc1cc(OC(=O)C(C)(C)C)c(C)c2c1CC[C@H]1[C@H](C)C(=O)O[C@@H]21            Non-Toxic
3  Cc1cc(OC(=O)CCC(=O)O)c(C)c2c1CC[C@H]1[C@H](C)C(=O)O[C@@H]21                Toxic
4  CCC(=O)Oc1cc(C)c2c(c1C)[C@@H]1OC(=O)[C@@H](C)[C@@H]1CC2                Toxic
5  Cc1cc(OCc2ccccc2)c(C)c2c1CC[C@H]1[C@H](C)C(=O)O[C@@H]21                Toxic
6  COc1cc(C)c2c(c1C)[C@@H]1OC(=O)[C@@H](C)[C@@H]1CC2                Toxic

====

Overview of reported inhibition at 10 µM across a group of compounds:
# Test system: Murine T-cell line
# assay-remarks: Immunosuppressive activity in Balb/c mouse T cells assessed as inhibition of ConA-induced cell proliferation at 10 uM after 48 hrs by MTT assay relative to control
property: inhibition at 10 µM (%)

> print(dat)
                            smiles.structure             property  experimental.result
 1  CCC(=O)Oc1cc(C)c2c(c1C)[C@@H]1OC(=O)[C@@H](C)[C@@H]1CC2  inhibition at 10 µM                   33
 2  Cc1cc(OC(=O)C(C)(C)C)c(C)c2c1CC[C@H]1[C@H](C)C(=O)O[C@@H]21  inhibition at 10 µM                 58.1
 3  Cc1cc(OC(=O)CCC(=O)Nc2ccccc2Cl)c(C)c2c1CC[C@H]1[C@H](C)C(=O)O[C@@H]21  inhibition at 10 µM                   45
 4  Cc1cc(OCc2ccc(Cl)cc2)c(C)c2c1CC[C@H]1[C@H](C)C(=O)O[C@@H]21  inhibition at 10 µM                   33
 5  COc1ccc(NC(=O)CCC(=O)Oc2cc(C)c3c(c2C)[C@@H]2OC(=O)[C@@H](C)[C@@H]2CC3)cc1  inhibition at 10 µM                   35
 6  Cc1cc(OC(=O)C(C)C)c(C)c2c1CC[C@H]1[C@H](C)C(=O)O[C@@H]21  inhibition at 10 µM                 61.5
 7  Cc1cc(OCc2ccccc2)c(C)c2c1CC[C@H]1[C@H](C)C(=O)O[C@@H]21  inhibition at 10 µM                   60
 8  CCCCOc1cc(C)c2c(c1C)[C@@H]1OC(=O)[C@@H](C)[C@@H]1CC2  inhibition at 10 µM                   51
 9  CCCCCC(=O)Oc1cc(C)c2c(c1C)[C@@H]1OC(=O)[C@@H](C)[C@@H]1CC2  inhibition at 10 µM                   46
10  CCCOc1cc(C)c2c(c1C)[C@@H]1OC(=O)[C@@H](C)[C@@H]1CC2  inhibition at 10 µM                   41
11  Cc1cc(O)c(C)c2c1CC[C@H]1[C@H](C)C(=O)O[C@@H]21  inhibition at 10 µM                 27.4
12  Cc1cc(OC(=O)CCC(=O)O)c(C)c2c1CC[C@H]1[C@H](C)C(=O)O[C@@H]21  inhibition at 10 µM                 53.4
13  CC(=O)Oc1cc(C)c2c(c1C)[C@@H]1OC(=O)[C@@H](C)[C@@H]1CC2  inhibition at 10 µM                 45.2
14  Cc1cc(OC(=O)CCC(=O)Nc2ccccc2F)c(C)c2c1CC[C@H]1[C@H](C)C(=O)O[C@@H]21  inhibition at 10 µM                 41.7
15  CCOc1cc(C)c2c(c1C)[C@@H]1OC(=O)[C@@H](C)[C@@H]1CC2  inhibition at 10 µM                    5
16  CCCCCOc1cc(C)c2c(c1C)[C@@H]1OC(=O)[C@@H](C)[C@@H]1CC2  inhibition at 10 µM                 33.1
17  COc1cc(C)c2c(c1C)[C@@H]1OC(=O)[C@@H](C)[C@@H]1CC2  inhibition at 10 µM                 23.2
18  Cc1cc(OC(=O)c2ccccc2)c(C)c2c1CC[C@H]1[C@H](C)C(=O)O[C@@H]21  inhibition at 10 µM                 39.4
19  CCCCC(=O)Oc1cc(C)c2c(c1C)[C@@H]1OC(=O)[C@@H](C)[C@@H]1CC2  inhibition at 10 µM                 29.6
20  CCCCCCCC(=O)Oc1cc(C)c2c(c1C)[C@@H]1OC(=O)[C@@H](C)[C@@H]1CC2  inhibition at 10 µM                 43.1
21  CCCC(=O)Oc1cc(C)c2c(c1C)[C@@H]1OC(=O)[C@@H](C)[C@@H]1CC2  inhibition at 10 µM                   38

====

# System: Murine T-cell line
# assay-remarks: Immunosuppressive activity in Balb/c mouse T cells assessed as inhibition of ConA-induced cell proliferation at 1 uM after 48 hrs by MTT assay relative to control
Tag: yes (1) if measured inhibition at 1 µM is not below 30%, no (0) if it is.

> print(dat)
                            smiles.structure  qualitative.label
 1  CCCCCC(=O)Oc1cc(C)c2c(c1C)[C@@H]1OC(=O)[C@@H](C)[C@@H]1CC2            yes (1)
 2  COc1cc(C)c2c(c1C)[C@@H]1OC(=O)[C@@H](C)[C@@H]1CC2            yes (1)
 3  Cc1cc(OC(=O)CCC(=O)Nc2ccccc2F)c(C)c2c1CC[C@H]1[C@H](C)C(=O)O[C@@H]21             no (0)
 4  Cc1cc(OCc2ccc(Cl)cc2)c(C)c2c1CC[C@H]1[C@H](C)C(=O)O[C@@H]21             no (0)
 5  Cc1cc(OC(=O)CCC(=O)Nc2ccccc2Cl)c(C)c2c1CC[C@H]1[C@H](C)C(=O)O[C@@H]21             no (0)
 6  CCCOc1cc(C)c2c(c1C)[C@@H]1OC(=O)[C@@H](C)[C@@H]1CC2            yes (1)
 7  CCCCOc1cc(C)c2c(c1C)[C@@H]1OC(=O)[C@@H](C)[C@@H]1CC2            yes (1)
 8  Cc1cc(OC(=O)c2ccccc2)c(C)c2c1CC[C@H]1[C@H](C)C(=O)O[C@@H]21            yes (1)
 9  CCCCCOc1cc(C)c2c(c1C)[C@@H]1OC(=O)[C@@H](C)[C@@H]1CC2             no (0)
10  CCCC(=O)Oc1cc(C)c2c(c1C)[C@@H]1OC(=O)[C@@H](C)[C@@H]1CC2             no (0)
11  CCOc1cc(C)c2c(c1C)[C@@H]1OC(=O)[C@@H](C)[C@@H]1CC2             no (0)
12  CCC(=O)Oc1cc(C)c2c(c1C)[C@@H]1OC(=O)[C@@H](C)[C@@H]1CC2             no (0)
13  CCCCC(=O)Oc1cc(C)c2c(c1C)[C@@H]1OC(=O)[C@@H](C)[C@@H]1CC2            yes (1)
